Numbers sourced from patent US11192907B2.

Listed here are compounds together with their documented pIC50.
Molecular target: recombinant mouse APA (Mus musculus)
Sequence (P16406 1-945): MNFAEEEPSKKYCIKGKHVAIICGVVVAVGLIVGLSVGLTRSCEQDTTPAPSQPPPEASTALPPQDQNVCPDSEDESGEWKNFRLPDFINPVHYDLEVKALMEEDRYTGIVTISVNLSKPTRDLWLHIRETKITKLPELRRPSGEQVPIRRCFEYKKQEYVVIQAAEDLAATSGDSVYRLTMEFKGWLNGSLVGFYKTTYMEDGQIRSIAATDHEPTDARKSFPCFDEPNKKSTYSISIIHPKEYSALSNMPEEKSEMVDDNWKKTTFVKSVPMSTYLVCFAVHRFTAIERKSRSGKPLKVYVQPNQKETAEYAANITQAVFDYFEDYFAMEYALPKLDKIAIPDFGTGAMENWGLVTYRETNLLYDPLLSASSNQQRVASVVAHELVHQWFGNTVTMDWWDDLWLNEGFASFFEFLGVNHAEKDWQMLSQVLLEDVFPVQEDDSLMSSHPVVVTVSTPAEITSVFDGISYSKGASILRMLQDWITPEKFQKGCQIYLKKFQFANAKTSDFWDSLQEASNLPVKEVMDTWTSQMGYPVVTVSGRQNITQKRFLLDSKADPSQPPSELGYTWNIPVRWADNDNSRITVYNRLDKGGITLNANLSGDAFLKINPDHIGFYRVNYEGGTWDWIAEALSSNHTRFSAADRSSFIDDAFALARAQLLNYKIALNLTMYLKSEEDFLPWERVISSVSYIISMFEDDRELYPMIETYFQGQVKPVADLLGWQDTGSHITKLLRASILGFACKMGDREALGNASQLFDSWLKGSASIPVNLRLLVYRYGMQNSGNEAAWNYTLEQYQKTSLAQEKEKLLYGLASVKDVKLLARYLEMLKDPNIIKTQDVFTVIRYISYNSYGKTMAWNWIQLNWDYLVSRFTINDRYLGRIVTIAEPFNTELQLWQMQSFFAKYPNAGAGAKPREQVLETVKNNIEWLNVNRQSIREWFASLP
Experiment: Measurement of APA activity in vitro (GluβNa hydrolysis, microplate)
Conditions: 200 μM Glu-βNa, pH 7.4, 37° C., read-out: In vitro inhibition of aminopeptidase A, IC50 classification
pIC50: −log10 of the molar value.

| COMPOUND | pIC50 |
| --- | --- |
| NC(CCC(=O)O)P(=O)(O)CCc1cccc(C(F)(F)F)c1 (stereo not drawn) | 6.52 to 7.52 |
| NC(CCC(=O)O)P(=O)(O)Cc1ccccc1 (stereo not drawn) | 6.52 to 7.52 |
| NC(CCC(=O)O)P(=O)(O)CCc1ccccc1OC1CCCC1 (stereo not drawn) | > 7.52 |
| NC(CCC(=O)O)P(=O)(O)Cc1cc(-c2ccccc2)no1 (stereo not drawn) | 5.00 to 6.52 |
| NC(CCC(=O)O)P(=O)(O)Cc1cccc(Oc2ccccc2)c1 (stereo not drawn) | 6.52 to 7.52 |
| N#Cc1cccc(CP(=O)(O)C(N)CCC(=O)O)c1 (stereo not drawn) | 6.52 to 7.52 |
| Cn1cc(CCP(=O)(O)C(N)CCC(=O)O)c2ccccc21 (stereo not drawn) | 6.52 to 7.52 |
| NC(CCC(=O)O)P(=O)(O)CCc1ccc2ccccc2c1 (stereo not drawn) | > 7.52 |
| Cc1ccc(CCP(=O)(O)C(N)CCC(=O)O)cc1 (stereo not drawn) | > 7.52 |
